assay: Toxicity against Bugula neritina larvae
Answer each item with its documented LC50.

Worked examples, 2 compounds total:
{"compound": "CC(C)CC[C@H]1OC(O)[C@]23CC[C@H]4[C@@H](CCC5=CC(=O)C=C[C@@]54C)[C@@H]2CC[C@@H]3[C@@H]1C (mixture of isomers)", "measurement.kind": "LC50", "reading": "> 25 µg/mL"}
{"compound": "CC(=O)O[C@H]1O[C@H](CCC(C)C)[C@@H](C)[C@H]2CC[C@H]3[C@@H]4CCC5=CC(=O)C=C[C@]5(C)[C@H]4CC[C@]123", "measurement.kind": "LC50", "reading": "> 25 µg/mL"}

In the following, a different compound is considered.
Request: Give the measured LC50 of CC(=O)O[C@@H]1O[C@H](CCC(C)C)[C@@H](C)[C@H]2CC[C@H]3[C@@H]4CCC5=CC(=O)C=C[C@]5(C)[C@H]4CC[C@]123 .
Result: > 25 µg/mL
